pKi: −log10 of the molar value.
Below, pKi values reported for Bcl-2-like protein 1 (Homo sapiens, UniProt Q07817) across several publications.

Example entries begin here.
- Compound: "O=C(O)c1c(CCCOc2cccc3ccccc23)c2ccccc2n1Cc1ccccc1"
  pKi: "< 4.82"
- Compound: "CN(C)CC[C@H](CSc1ccccc1)Nc1ccc(S(=O)(=O)Nc2ccc(-c3cn(-c4cccc(-c5c(-c6ccc(Cl)cc6)cn(CC[C@H](O)CO)c5C(=O)NCCCN5CCN(C)CC5)c4)nn3)cc2)cc1[N+](=O)[O-]"
  pKi: "> 9.00"
- Compound: "Cc1ccccc1N1C(=O)/C(=C/c2cccc(OCc3ccc(C(=O)O)cc3)c2)SC1=S"
  pKi: "< 5.00"

Attention now shifts to the item below.
## Input Missing value: pKi, Bcl-2-like protein 1 (Homo sapiens, UniProt Q07817), entry CC(C)CC(NC(=O)c1ccc(C(=O)N[C@@H](CC(C)C)C(=O)O)c(Oc2cccc3ccccc23)c1)C(=O)O (some centres undefined) . Fill in?
## Output < 4.52
